This section presents substances with their documented pEC50 values.
- subject of test: human GLP-1 receptor (hGLP-1R) (Homo sapiens)
- Construct: expressed in transfected cells
- Sequence (P43220 24-463): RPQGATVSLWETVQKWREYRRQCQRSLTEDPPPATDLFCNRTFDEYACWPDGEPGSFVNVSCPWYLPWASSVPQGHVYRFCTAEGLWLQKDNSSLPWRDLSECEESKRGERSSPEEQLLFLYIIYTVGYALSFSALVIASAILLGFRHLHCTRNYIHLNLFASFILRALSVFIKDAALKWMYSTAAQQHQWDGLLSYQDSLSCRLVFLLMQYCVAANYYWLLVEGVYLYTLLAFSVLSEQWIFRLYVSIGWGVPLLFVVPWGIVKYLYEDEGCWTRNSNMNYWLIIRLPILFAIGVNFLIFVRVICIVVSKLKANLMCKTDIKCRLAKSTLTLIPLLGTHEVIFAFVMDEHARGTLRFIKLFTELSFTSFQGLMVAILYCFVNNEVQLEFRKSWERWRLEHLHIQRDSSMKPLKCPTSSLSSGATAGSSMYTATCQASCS
- assay name: GLP-1 receptor assay, method A (CRE-luciferase reporter, BHK cells)
- Assay type: cell-based
- conditions used: method A, absence of HSA; read-out: hGLP-1R Potency, no HSA, EC50
pEC50: −log10 of the molar value. Numbered stars: 1 amine (or outer) side, 2 acyl side, 3 side chain; on linkers, the order of the positions; unused ones are H or OH. Square brackets hold non-standard residues; d marks the D form. Side chains are listed from the residue outwards. * marks the point of attachment. C20 diacid = O=C(O)CCCCCCCCCCCCCCCCCCC(=O)*; C18 diacid = O=C(O)CCCCCCCCCCCCCCCCC(=O)*; γGlu = O=C(O)[C@H](CCC(=O)[*:2])N[*:1]; AEEA = NCCOCCOCC(=O)O; Aib = CC(C)(N)C(=O)O

| substance | pEC50 |
| --- | --- |
| Y[Aib]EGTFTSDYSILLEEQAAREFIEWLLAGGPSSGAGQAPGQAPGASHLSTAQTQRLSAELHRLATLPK([AEEA-AEEA-γGlu-C18 diacid])TETGSGSP-NH2 [Compound 57] | 10.89 |
| H[Aib]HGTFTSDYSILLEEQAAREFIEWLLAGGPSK([AEEA-AEEA-γGlu-C18 diacid])GAPPPSGGGASELSTAALGRLSAELHRLATLPRTETGSGSP-NH2 [Compound 86] | 11.17 |
| H[Aib]HGTFTSDYSILLEEQAAREFIEWLLAGGPSSGAGQAPGQAPGASHLSTAQTARLSAELHK([AEEA-AEEA-γGlu-C20 diacid])LATLPRTETGSGSP-NH2 [Compound 104] | 11.38 |
| H[Aib]HGTFTSDYSILLEEQAAREFIEWLLAGGPSSGEASHLSTAQTQRLSAK([AEEA-AEEA-γGlu-C18 diacid])LHRLATLPRTETGSGSP-NH2 [Compound 82] | 11.46 |

###

This section presents substances with their documented Purity loss per week at 37° C. values.
- assay name: Chemical stability assessment in formulation (UPLC-UV-MS purity loss at 37° C.)
- Type: physicochemical
- conditions used: 8 mM phosphate buffer pH 7.4, 1 mg/mL, 2 weeks
- Description: The assay was performed to investigate the extend of chemical degradation in vitro over time upon incubation at 37° C. for a period of 2 weeks. Peptide solutions were prepared by dissolving freeze-dried powder in 8 mM phosphate buffer pH 7.4 to a target of 1 mg/mL. The pH of peptide solutions was adjusted to 7.4 with 0.02 M HCl or 0.02 M NaOH. Samples were filled in Agilent HPLC vials with fixed insert. Vials were capped to prevent evaporation. […]
Numbered stars: 1 amine (or outer) side, 2 acyl side, 3 side chain; on linkers, the order of the positions; unused ones are H or OH. Square brackets hold non-standard residues; d marks the D form. Side chains are listed from the residue outwards. * marks the point of attachment. C20 diacid = O=C(O)CCCCCCCCCCCCCCCCCCC(=O)*; C18 diacid = O=C(O)CCCCCCCCCCCCCCCCC(=O)*; C16 diacid = O=C(O)CCCCCCCCCCCCCCC(=O)*; γGlu = O=C(O)[C@H](CCC(=O)[*:2])N[*:1]; AEEA = NCCOCCOCC(=O)O; Aib = CC(C)(N)C(=O)O
quantity kind: Purity loss per week at 37° C.

| substance | recorded measurement |
| --- | --- |
| H[Aib]HGTFTSDYSILLEEQAAREFIEWLLAGGPSSGAGQAPGQAPGASHLSTAQTQRLSAK([AEEA-AEEA-γGlu-C18 diacid])LHRLATLPRTETGSGSP-NH2 [Compound 78] | 3.5% |
| H[Aib]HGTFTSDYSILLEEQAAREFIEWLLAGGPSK([AEEA-AEEA-γGlu-C18 diacid])GEASQLSTAALGRLSAELHTLATLPRTETGSGSP-NH2 [Compound 63] | 3.7% |
| H[Aib]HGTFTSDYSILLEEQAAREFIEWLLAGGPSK([AEEA-AEEA-γGlu-C18 diacid])GAGQAPGQAPGASHLSTAQTQRLSAELHELATLPRTETGSGSP-NH2 [Compound 47] | 2.6% |
| Y[Aib]EGTFTSDYSILLEEQAAREFIEWLLAGGPSSGAGQAPGQAPGASHLSTAALGRLSAELHK([AEEA-AEEA-γGlu-C18 diacid])LATLPRTETGSGSP-NH2 [Compound 53] | 0.8% |
| H[Aib]HGTFTSDYSILLEEQAAREFIEWLLAGGPSSGAGQAPGQAPGASHLSTAQTQRLSAELHRLATLPK([AEEA-AEEA-γGlu-C18 diacid])TETGSGSP-NH2 [Compound 92] | 2.8% |
| H[Aib]HGTFTSDYSILLEEQAAREFIEWLLAGGPSSGEASHLSTAQTQRLSAELHRLATLPK([AEEA-AEEA-γGlu-C18 diacid])TETGSGSP-NH2 [Compound 84] | 2.9% |
| Y[Aib]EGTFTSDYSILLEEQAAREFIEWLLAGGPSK([AEEA-AEEA-γGlu-C18 diacid])GEASHLSTAQTARLSAELHELATLPRTETGSGSP-NH2 [Compound 35] | 0.3% |
| Y[Aib]EGTFTSDYSILLEEQAAREFIEWLLAGGPSSGEASHLSTAQTQRLSAK([AEEA-AEEA-γGlu-C18 diacid])LHRLATLPRTETGSGSP-NH2 [Compound 79] | 1.3% |
| Y[Aib]EGTFTSDYSILLEEQAAREFIEWLLAGGPSSGAGQAPGQAPGASHLSTAQTQRLSAELHK([AEEA-AEEA-γGlu-C20 diacid])LATLPRTETGSGSP-NH2 [Compound 115] | 1.1% |
| H[Aib]HGTFTSDYSILLEEQAAREFIEWLLAGGPSSGAGQAPGQAPGASHLSTAQTQRLSAELHRLK([AEEA-AEEA-γGlu-C18 diacid])TLPRTETGSGSP-NH2 [Compound 91] | 2.8% |
| H[Aib]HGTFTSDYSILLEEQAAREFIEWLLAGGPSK([AEEA-AEEA-γGlu-C18 diacid])GEASQLSTAALGRLSAELHQLATLPRTETGSGSP-NH2 [Compound 64] | 3.3% |
| Y[Aib]EGTFTSDYSILLEEQAAREFIEWLLAGGPSSGEASHLSTAQTQRLSAELHK([AEEA-AEEA-γGlu-C18 diacid])LATLPRTETGSGSP-NH2 [Compound 50] | 0.7% |
| H[Aib]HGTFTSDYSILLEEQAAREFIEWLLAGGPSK([AEEA-AEEA-γGlu-C16 diacid])GEASQLSTAALGRLSAELHRLADLPRTETGSGSP-NH2 [Compound 62] | 3.0% |
| Y[Aib]EGTFTSDYSILLEEQAAREFIEWLLAGGPSSGAGQAPGQAPGASHLSTAQTQRLSAELHRLK([AEEA-AEEA-γGlu-C18 diacid])TLPRTETGSGSP-NH2 [Compound 56] | 0.6% |
